Entry source: patent US20200352905A1

ASSAY_TEXT: TED14856 Part A: plasma pharmacokinetics of compound (1)
Type: in vivo, human
STUDY_CONDITIONS: human, plasma, oral, 150 mg, repeated 150 mg once daily, Cycle1 Day 22, fasted, N=2; read-out: tmax (median)
READOUT_NAME: Tmax (h)
Answer format: numeric, h implied, no suffix.

Given the compound O=C(O)c1ccc2c(c1)CCCC(c1ccc(Cl)cc1Cl)=C2c1ccc(O[C@H]2CCN(CCCF)C2)cc1 [compound (1)] , what is its reported Tmax?
2.97

* * *

ASSAY_TEXT: TED14856 Part A: plasma pharmacokinetics of compound (1)
Format: in vivo, human
STUDY_CONDITIONS: human, plasma, oral, 600 mg, single 600 mg, Cycle1 Day 1, fasted, N=3; read-out: AUC0-24 (Mean ± SD)
READOUT_NAME: AUC(0-t) (ng·h/mL)
Answer format: numeric, ng·h/mL implied, no suffix.

Given the compound O=C(O)c1ccc2c(c1)CCCC(c1ccc(Cl)cc1Cl)=C2c1ccc(O[C@H]2CCN(CCCF)C2)cc1 , what is its reported AUC(0-t)?
61100

* * *

ASSAY_TEXT: TED14856 Part A: plasma pharmacokinetics of compound (1)
Type: in vivo, human
STUDY_CONDITIONS: human, plasma, oral, 200 mg, single 200 mg, Cycle1 Day 1, fasted, N=4; read-out: Vss/F (Mean ± SD)
READOUT_NAME: Vd/F
Remember to put the unit after the number in your answer.

Given the molecule O=C(O)c1ccc2c(c1)CCCC(c1ccc(Cl)cc1Cl)=C2c1ccc(O[C@H]2CCN(CCCF)C2)cc1 , what is its reported Vd/F?
213 L

* * *

ASSAY_TEXT: TED14856 Part A: plasma pharmacokinetics of compound (1)
Type: in vivo, human
STUDY_CONDITIONS: human, plasma, oral, 20 mg, repeated 20 mg once daily, Cycle1 Day 22, fasted, N=3; read-out: AUC0-24 (Geometric Mean)
READOUT_NAME: AUC(0-t)
Remember to put the unit after the number in your answer.

Given the molecule O=C(O)c1ccc2c(c1)CCCC(c1ccc(Cl)cc1Cl)=C2c1ccc(O[C@H]2CCN(CCCF)C2)cc1 [compound (1)] , what is its reported AUC(0-t)?
1350 ng·h/mL

* * *

ASSAY_TEXT: TED14856 Part A: plasma pharmacokinetics of compound (1)
Format: in vivo, human
STUDY_CONDITIONS: human, plasma, oral, 200 mg, repeated 200 mg once daily, Cycle1 Day 22, fasted, N=3; read-out: AUC0-24 (Geometric Mean)
READOUT_NAME: AUC(0-t) (ng·h/mL)
Answer format: numeric, ng·h/mL implied, no suffix.

Given the molecule O=C(O)c1ccc2c(c1)CCCC(c1ccc(Cl)cc1Cl)=C2c1ccc(O[C@H]2CCN(CCCF)C2)cc1 [compound (1)] , what is its reported AUC(0-t)?
13400

* * *

ASSAY_TEXT: TED14856 Part A: plasma pharmacokinetics of compound (1)
Assay type: in vivo, human
STUDY_CONDITIONS: human, plasma, oral, 150 mg, repeated 150 mg once daily, Cycle1 Day 22, fasted, N=2; read-out: Cmax (Geometric Mean)
READOUT_NAME: Cmax (ng/mL)
Answer format: numeric, ng/mL implied, no suffix.

Given the compound O=C(O)c1ccc2c(c1)CCCC(c1ccc(Cl)cc1Cl)=C2c1ccc(O[C@H]2CCN(CCCF)C2)cc1 , what is its reported Cmax?
2230
